- Tested on: STS26T
- measurement_notes: drug sensitivity score (DSS, CellTiter-Glo viability, 72 h) (DSS (dimensionless)); higher = more sensitive; extreme values may be limits of the assay
drug sensitivity score by entry:
assay_endpoint: drug sensitivity score

# compound, assay_endpoint, number
rows = [
    ("CC(C)(C)c1cc(NC(=O)Nc2ccc(-c3cn4c(n3)sc3cc(OCCN5CCOCC5)ccc34)cc2)no1 [Quizartinib] (max concentration tested 1000 nM)", "drug sensitivity score", 1.24),
    ("CN(C)/N=N/c1[nH]cnc1C(N)=O [Dacarbazine] (max concentration tested 10000 nM)", "drug sensitivity score", 1.17),
    ("CN1CCN(c2ccc3nc(-c4c(N)c5c(F)cccc5[nH]c4=O)[nH]c3c2)CC1 [Dovitinib] (max concentration tested 10000 nM)", "drug sensitivity score", 0.0001),
    ("COc1cc([C@@H]2c3cc4c(cc3[C@@H](O[C@@H]3O[C@@H]5CO[C@@H](C)O[C@H]5[C@H](O)[C@H]3O)[C@H]3COC(=O)[C@H]23)OCO4)cc(OC)c1O [Etoposide] (max concentration tested 10000 nM)", "drug sensitivity score", 7.33),
    ("COC(=O)c1ccc2c(c1)NC(=O)/C2=C(\\Nc1ccc(N(C)C(=O)CN2CCN(C)CC2)cc1)c1ccccc1 [Nintedanib] (max concentration tested 10000 nM)", "drug sensitivity score", 0),
    ("COc1cc(Nc2c(C#N)cnc3cc(OCCCN4CCN(C)CC4)c(OC)cc23)c(Cl)cc1Cl [Bosutinib] (max concentration tested 10000 nM)", "drug sensitivity score", 9.81),
    ("Cc1c(C(=O)Nc2ccc(N3C[C@@H](C)O[C@@H](C)C3)nc2)cccc1-c1ccc(OC(F)(F)F)cc1 [Erismodegib] (max concentration tested 10000 nM)", "drug sensitivity score", 0.451),
    ("CC1=C2C[C@H]3[C@@H](CC=C4C[C@@H](O)CC[C@@]43C)[C@@H]2CC[C@]12O[C@@H]1C[C@H](C)CN[C@H]1[C@H]2C [Cyclopamine] (max concentration tested 10000 nM)", "drug sensitivity score", 0),
    ("CC(C)(C)c1nc(-c2cccc(NS(=O)(=O)c3c(F)cccc3F)c2F)c(-c2ccnc(N)n2)s1 [Dabrafenib] (max concentration tested 2500 nM)", "drug sensitivity score", 3.99),
    ("CN1CCN(CCOc2cc(OC3CCOCC3)c3c(Nc4c(Cl)ccc5c4OCO5)ncnc3c2)CC1 [Saracatinib] (max concentration tested 10000 nM)", "drug sensitivity score", 5.09),
    ("O=P1(NCCCl)OCCCN1CCCl (stereo unspecified) [Ifosfamide] (max concentration tested 10000 nM)", "drug sensitivity score", 0),
]

====

- Test system: HSC2
- measurement_notes: relative IC50 (inflection point of fitted dose-response curve, CellTiter-Glo viability, 72 h; top asymptote may be below 50% inhibition); higher = less potent

# compound, reading_unit, result_comparator, relative IC50
records = [
    ("CC[C@H](Nc1ncnc2[nH]cnc12)c1nc2cccc(F)c2c(=O)n1-c1ccccc1 [Idelalisib]", "nM", ">", 10000),
    ("Cn1cnc2c(F)c(Nc3ccc(Br)cc3F)c(C(=O)NOCCO)cc21 [MEK-162]", "nM", ">", 1000),
    ("CN1CCN(c2nc(C3=C(c4c[nH]c5ccccc45)C(=O)NC3=O)c3ccccc3n2)CC1 [Sotrastaurin]", "nM", ">", 10000),
    ("COc1cc(F)c(F)c(Nc2ccc(I)cc2F)c1NS(=O)(=O)C1(C[C@H](O)CO)CC1 [Refametinib]", "nM", "=", 443),
    ("CCOc1cc2ncc(C#N)c(Nc3ccc(OCc4ccccn4)c(Cl)c3)c2cc1NC(=O)/C=C/CN(C)C [Neratinib]", "nM", "=", 211),
]
